These measurements were taken from ChEMBL document CHEMBL2321652.

assay.comment: Bioavailability in rat at 50 mg/mL formulated with Vit-E TPGS, DSPG and sucrose in water administered intramuscularly measured after 1 month
Format: ADME, organism-based
cond: in vivo, im
measure.name: bioavailability at 1 month (%)
Give just the number in %; leave the unit off.

// COC(=O)N[C@H](C(=O)N[C@@H](Cc1ccc(-c2ccc(N(C)C)nc2)cc1)[C@@H](O)C[C@@H](Cc1ccccc1F)C(=O)N[C@H]1c2cc(F)cc(Cl)c2OC[C@H]1O)C(C)(C)C : bioavailability at 1 month value = 12

* * *

assay.comment: Drug metabolism in human liver microsomes at 1 uM after 15 mins
Type: ADME, Microsome
cond: read-out: Drug metabolism
measure.name: metabolised at 0.25 h, 1 µM (%)
Answer with a number only, understood to be in %.

Record excerpt, results attached:
chemical.structure	metabolised at 0.25 h, 1 µM, %
COC(=O)N[C@H](C(=O)N[C@@H](Cc1ccc(-c2ccc(OC)nc2)cc1)[C@@H](O)C[C@@H](Cc1ccccc1F)C(=O)N[C@H]1c2cc(F)cc(Cl)c2OC[C@H]1O)C(C)(C)C	8
COC(=O)N[C@H](C(=O)N[C@@H](Cc1ccc(-c2ccc(OC)nc2)cc1)[C@@H](O)C[C@@H](Cc1ccccc1F)C(=O)N[C@H]1[C@H](C)CCC[C@H]1O)C(C)(C)C	99
COC(=O)N[C@H](C(=O)N[C@@H](Cc1ccc(-c2ccc(OC)nc2)cc1)[C@@H](O)C[C@@H](Cc1ccccc1F)C(=O)N[C@H]1c2ccccc2OC[C@H]1O)C(C)(C)C	72
COC(=O)N[C@H](C(=O)N[C@@H](Cc1ccc(-c2ccc(OC)nc2)cc1)[C@@H](O)C[C@@H](Cc1ccccc1F)C(=O)N[C@H]1c2cc(Cl)cc(F)c2OC[C@H]1O)C(C)(C)C	23
COC(=O)N[C@H](C(=O)N[C@@H](Cc1ccc(-c2ccc(OC)nc2)cc1)[C@@H](O)C[C@@H](Cc1ccccc1F)C(=O)N[C@H]1c2cccc(Cl)c2OC[C@H]1O)C(C)(C)C	47

The measured metabolised at 0.25 h, 1 µM associated with COC(=O)N[C@H](C(=O)N[C@@H](Cc1ccc(-c2ccc(OC)nc2)cc1)[C@@H](O)C[C@@H](Cc1ccccc1F)C(=O)N[C@H]1c2cc(C)ccc2OC[C@H]1O)C(C)(C)C reads 63

The compound COC(=O)N[C@H](C(=O)N[C@@H](Cc1ccc(-c2ccc(OC)nc2)cc1)[C@@H](O)C[C@@H](Cc1ccccc1F)C(=O)N[C@H]1CCCC[C@H]1O)C(C)(C)C showed metabolised at 0.25 h, 1 µM equal to 99

Entry COC(=O)N[C@H](C(=O)N[C@@H](Cc1ccc(-c2ccc(OC)nc2)cc1)[C@@H](O)C[C@@H](Cc1ccccc1F)C(=O)N[C@H]1[C@H](C)CC[C@H]1O)C(C)(C)C — recorded metabolised at 0.25 h, 1 µM = 99

Value of metabolised at 0.25 h, 1 µM reported for the compound COC(=O)N[C@H](C(=O)N[C@@H](Cc1ccc(-c2ccc(OC)nc2)cc1)[C@@H](O)C[C@@H](Cc1ccccc1F)C(=O)N[C@H]1c2cccc(F)c2OC[C@H]1O)C(C)(C)C is 98

// sample COC(=O)N[C@H](C(=O)N[C@@H](Cc1ccc(-c2ccc(OC)nc2)cc1)[C@@H](O)C[C@@H](Cc1ccccc1F)C(=O)N[C@H]1c2ccsc2CC[C@H]1O)C(C)(C)C , its metabolised at 0.25 h, 1 µM was 91

Note to self: metabolised at 0.25 h, 1 µM recorded for COC(=O)N[C@H](C(=O)N[C@@H](Cc1ccc(-c2ccc(OC)nc2)cc1)[C@@H](O)C[C@@H](Cc1cccc(OC(F)(F)F)c1)C(=O)N[C@H]1[C@H](C)CCC[C@H]1O)C(C)(C)C was 94
